target: Estrogen receptor beta (Homo sapiens); test: OT_ER_ERbERb_0480: Odyssey Thera (OT) 8-hour HEK293T Protein-Complementation Assay for Estrogen Receptor-beta/-beta Homodimer (AID 2283357);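 further: active means signal gain over DMSO baseline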
Inconclusive results are not listed. Activity calls are given as the source filed them. How the source made its calls: active means hit-call score of the fitted dose curve at least 0.9, where 1 is the maximum; inconclusive means response in the unintended direction; inactive means score below 0.9.
READOUT LABEL: outcome

1) c1ccc2c(c1)Nc1ccccc1S2 ... inactive
2) CCOC(=O)c1ccccc1N ... inactive
3) O=C(CBr)OCc1ccccc1 ... inactive

* * *

test: CCTE_Shafer_MEA_dev_network_spike_peak: CCTE's Neural Network Formation Assay for Mean Number of Electrodes in Network Spike, Shafer Lab (AID 2284049);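 on AC50: fitted for loss of signal meaning fewer electrodes in network spikes than DMSO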
Active and inactive are the calls of the source. How the source made its calls: active means hit-call score of the fitted dose curve at least 0.9, where 1 is the maximum; inactive means score below 0.9.
READOUT LABEL: AC50

1) O=C(O)C(F)(F)OC(F)(F)C(F)(F)OC(F)(F)C(=O)O ... inactive
2) OCC(F)(F)OC(F)(F)C(F)(F)OC(F)(F)C(F)(F)OC(F)(F)CO ... inactive
3) c1ccc(OP(Oc2ccccc2)Oc2ccccc2)cc1 ... inactive
4) CCCCC(CC)COP(=O)(Oc1ccccc1)Oc1ccccc1 (stereo not given) ... 1670 nM (active)
5) O=P1(N(CCCl)CCCl)NCCCO1 (stereo not given) ... inactive
6) CCOc1ccc(C(C)(C)COCc2cccc(Oc3ccccc3)c2)cc1 ... 6540 nM (active)
7) O=C(O)C(F)(F)OC(F)(F)C(F)(F)OC(F)(F)F ... inactive
8) O=C(O)C=CC(F)(C(F)(F)F)C(F)(F)F ... inactive
9) O=S(=O)(c1ccc(O)cc1)c1ccc(O)cc1 ... inactive
10) CCCCC(CC)COC(=O)c1c(Br)c(Br)c(Br)c(Br)c1C(=O)OCC(CC)CCCC (stereo not given) ... 330 nM (active)
11) CO/N=C(/C(=O)OC)c1ccccc1COc1ccccc1C ... 567 nM (active)
12) CCC1(c2ccccc2)C(=O)N=C(O)NC1=O (stereo not given) ... inactive
13) O=C(O)C(F)(F)C(F)(F)C(=O)O ... inactive
14) ClC1=C(Cl)C2(Cl)C3C(Cl)C(Cl)CC3C1(Cl)C2(Cl)Cl (stereo not given) ... 6760 nM (active)
15) OCC(F)(F)OC(F)(F)C(F)(F)OC(F)(F)CO ... inactive
